Listing: IC50 of selected compounds
- Tested on: HEP2 cells
- protocol-description: cells
- Assay type: cell-based
- assay-setup: Homo sapiens, HEp-2; MTT test, 96 h, non-infected HEP2 cells; read-out: IC50 ± SD, concentration toxic to 50% of non-infected HEP2 cells

# compound, IC50, µM
rows = [
    ("C#CCOC(=O)[C@]12CC[C@@H](C)[C@H](C)[C@H]1C1=CC[C@@H]3[C@@]4(C)CC[C@H](OC(C)=O)C(C)(C)[C@@H]4CC[C@@]3(C)[C@]1(C)CC2", 20.3),
    ("CC(=O)OC1CCC2(C)C(CCC3(C)C2CC=C2C4C(C)C(C)CCC4(C(=O)O)CCC23C)C1(C)C (centres unmarked)", 17.2),
]

* * *

Form field: IC50 (one value per entry).
- Test system: B16F10 cells
- protocol-description: cells
- Format: cell-based
- assay-setup: Mus musculus, B16-F10; MTT test, 96 h, non-infected B16F10 cells; read-out: IC50 ± SD, concentration toxic to 50% of non-infected B16F10 cells

# compound, IC50 / µM
measured = [
    ("C#CCOC(=O)[C@]12CC[C@@H](C)[C@H](C)[C@H]1C1=CC[C@@H]3[C@@]4(C)CC[C@H](OC(C)=O)C(C)(C)[C@@H]4CC[C@@]3(C)[C@]1(C)CC2", 29),
    ("CC(=O)OC1CCC2(C)C(CCC3(C)C2CC=C2C4C(C)C(C)CCC4(C(=O)O)CCC23C)C1(C)C (centres unmarked)", 12.4),
]

* * *

- Test system: RSV
- protocol-description: Anti-RSV activity in RSV-infected A549 cells (MTT and SRB)
- Format: cell-based, RSV A strain (line A2)
- assay-setup: IC50 in VERO
experimental-endpoint: Therapeutic index (TI) = IC50(VERO)/EC50(A549 + RSV)

# compound, value-measured
records = [
    ("C#CCOC(=O)[C@]12CC[C@@H](C(=C)C)[C@@H]1[C@H]1CC[C@@H]3[C@@]4(C)CC[C@H](OC(C)=O)C(C)(C)[C@@H]4CC[C@@]3(C)[C@]1(C)CC2", 24.2),
    ("C=C(C)[C@@H]1CC[C@]2(C(=O)O)CC[C@]3(C)[C@H](CC[C@@H]4[C@@]5(C)CC[C@H](O)C(C)(C)[C@@H]5CC[C@]43C)[C@@H]12 [compound 1, betulinic acid, reference compound]", 2.7),
    ("CC(=O)OC1CCC2(C)C(CCC3(C)C2CC=C2C4C(C)C(C)CCC4(C(=O)O)CCC23C)C1(C)C (centres unmarked)", 0.9),
    ("C[C@H]1[C@H](C)CC[C@]2(C(=O)O)CC[C@]3(C)C(=CC[C@@H]4[C@@]5(C)CC[C@H](O)C(C)(C)[C@@H]5CC[C@]43C)[C@H]12 [compound 2, ursolic acid, reference compound]", 0.8),
    ("CC(=O)OC1CCC2(C)C(CCC3(C)C2CC=C2C4C(C)C(C)CCC4(C(=O)OCc4cn(-c5cccc([N+](=O)[O-])c5)nn4)CCC23C)C1(C)C (centres unmarked)", 432.0),
    ("C=C(C)[C@@H]1CC[C@]2(C(=O)OCc3cn(-c4cccc([N+](=O)[O-])c4)nn3)CC[C@]3(C)[C@H](CC[C@@H]4[C@@]5(C)CC[C@H](OC(C)=O)C(C)(C)[C@@H]5CC[C@]43C)[C@@H]12", 63.0),
    ("C=C(C)[C@@H]1CC[C@]2(C(=O)O)CC[C@]3(C)[C@H](CC[C@@H]4[C@@]5(C)CC[C@H](OC(C)=O)C(C)(C)[C@@H]5CC[C@]43C)[C@@H]12", 0.3),
    ("C#CCOC(=O)[C@]12CC[C@@H](C)[C@H](C)[C@H]1C1=CC[C@@H]3[C@@]4(C)CC[C@H](OC(C)=O)C(C)(C)[C@@H]4CC[C@@]3(C)[C@]1(C)CC2", 0.7),
]
